# assayed-system: Muscarinic acetylcholine receptor
Mark class 1 only for Ki values smaller than 40 µM; exact matches and larger values are class 0.

Illustrative cases are given below, each with its answer.
>  <molecule>
CC1OC2(CCN(C)CC2)CC1=O (centres undefined)

>  <assayed-system>
Muscarinic acetylcholine receptor

>  <discrete-label>
class 1

$$$$
>  <molecule>
CC1OC2(CCN(C)CC2)CC1O.Cl (centres undefined)

>  <assayed-system>
Muscarinic acetylcholine receptor

>  <discrete-label>
class 0

$$$$
>  <molecule>
CC1CC(=O)C2(CCN(C)CC2)O1 (centres undefined)

>  <assayed-system>
Muscarinic acetylcholine receptor

>  <discrete-label>
class 1

$$$$

Decide: Ki of CC1OC2(CCN(C)CC2)C/C1=N\O (centres undefined) strictly below 40 µM?
class 1

Hello, is Ki of the following molecule strictly smaller than 40 µM? CC(=O)O/N=C1\COC2(CCN(C)CC2)C1.O=C(O)/C=C\C(=O)O.O=C(O)C(=O)O
class 0

Find out if reported Ki for CC1OC2(CCN(C)CC2)CC1O (centres undefined) is less than 40 µM
class 0

Record CCC(=O)O/N=C1\COC2(CCN(C)CC2)C1.O=C(O)/C=C\C(=O)O.O=C(O)C(=O)O : is its Ki strictly below 40 µM?
class 1

Lab note: confirm whether the reported Ki for this molecule is below 40 µM, equality not counting. molecule: CC(=O)OC1COC2(CCN(C)CC2)C1 (centres undefined)
class 0

Decide: Ki of CC1CC(O)C2(CCN(C)CC2)O1 (centres undefined) strictly below 40 µM?
class 1
